Molecular target: c-Src SH2;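 also: peptide library displayed on the E. coli surface as eCPX fusions, selected cells deep-sequenced, score is each peptide's frequency after selection divided by its frequency in the input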
Assay: SH2 binding enrichment of the phosphorylated peptide, bacterial display (enrichment ratio); higher = better substrate or ligand; peptides without Tyr show the background
experimental-endpoint: SH2 binding enrichment

{"primary-sequence": "KVKGEYDMTVP [AHNAK_Y964]", "result": 0.499}

[P] EEGESYVCSSD [DCX_Y125]
[Q] PIQLFYTRRNT [GHR_Y86]
Asked: // compare measured SH2 binding enrichment between P and Q ; output the lower one Please indicate the selected item by its label.
Given back: Q
(Q: 0.492, P: 0.793)

---

Tested on: AncSZ
Assay: phosphorylation enrichment, bacterial display (enrichment ratio); higher = better substrate or ligand; peptides without Tyr show the background
experimental-endpoint: phosphorylation enrichment
Returns: the value as a bare number; no unit string appended.

Consider the following illustrative entries.
{"primary-sequence": "LMVFEYMRHGN [NTRK1_Y591_D596N]", "phosphorylation enrichment": 0.998}
{"primary-sequence": "NYYDTYIKTCL [IQGAP2_Y1445]", "phosphorylation enrichment": 1.93}
{"primary-sequence": "YYHCTYKQRMI [CLEC12A_Y242_K244Q]", "phosphorylation enrichment": 1.64}
{"primary-sequence": "NTEGGYRCICA [CRELD1_Y328]", "phosphorylation enrichment": 0.976}
{"primary-sequence": "FSIDHYLGKEM [G6PD_Y202_R198S_YF]", "phosphorylation enrichment": 1.06}
{"primary-sequence": "DMLYQYLKQIE [RPAP3_Y569]", "phosphorylation enrichment": 1.23}
{"primary-sequence": "SGIYQYSIAKF [FOXL2_Y83_I84S]", "phosphorylation enrichment": 1.83}
{"primary-sequence": "EARRVYRDIIH [ALDH5A1_Y175_G176R]", "phosphorylation enrichment": 0.549}

Asked: Please supply the value of reported phosphorylation enrichment for the item QGIYGYHHYMQ [UFSP2_Y287]
Given back: 1.6

Asked: Please supply the value of reported phosphorylation enrichment for the item TGEKPYECVQC [ZNF24_Y335]
Given back: 0.755

Asked: Please supply the value of reported phosphorylation enrichment for the item FSSLGYPPPEG [ZSWIM4_Y87_YF]
Given back: 0.752

Asked: Please supply the value of reported phosphorylation enrichment for the item RRLEPYGENFN [APOA4_Y310_V307L]
Given back: 1.04

---

Target: EPHB1 (UniProt P54762)
Sequence (P54762 whole entry, looked up): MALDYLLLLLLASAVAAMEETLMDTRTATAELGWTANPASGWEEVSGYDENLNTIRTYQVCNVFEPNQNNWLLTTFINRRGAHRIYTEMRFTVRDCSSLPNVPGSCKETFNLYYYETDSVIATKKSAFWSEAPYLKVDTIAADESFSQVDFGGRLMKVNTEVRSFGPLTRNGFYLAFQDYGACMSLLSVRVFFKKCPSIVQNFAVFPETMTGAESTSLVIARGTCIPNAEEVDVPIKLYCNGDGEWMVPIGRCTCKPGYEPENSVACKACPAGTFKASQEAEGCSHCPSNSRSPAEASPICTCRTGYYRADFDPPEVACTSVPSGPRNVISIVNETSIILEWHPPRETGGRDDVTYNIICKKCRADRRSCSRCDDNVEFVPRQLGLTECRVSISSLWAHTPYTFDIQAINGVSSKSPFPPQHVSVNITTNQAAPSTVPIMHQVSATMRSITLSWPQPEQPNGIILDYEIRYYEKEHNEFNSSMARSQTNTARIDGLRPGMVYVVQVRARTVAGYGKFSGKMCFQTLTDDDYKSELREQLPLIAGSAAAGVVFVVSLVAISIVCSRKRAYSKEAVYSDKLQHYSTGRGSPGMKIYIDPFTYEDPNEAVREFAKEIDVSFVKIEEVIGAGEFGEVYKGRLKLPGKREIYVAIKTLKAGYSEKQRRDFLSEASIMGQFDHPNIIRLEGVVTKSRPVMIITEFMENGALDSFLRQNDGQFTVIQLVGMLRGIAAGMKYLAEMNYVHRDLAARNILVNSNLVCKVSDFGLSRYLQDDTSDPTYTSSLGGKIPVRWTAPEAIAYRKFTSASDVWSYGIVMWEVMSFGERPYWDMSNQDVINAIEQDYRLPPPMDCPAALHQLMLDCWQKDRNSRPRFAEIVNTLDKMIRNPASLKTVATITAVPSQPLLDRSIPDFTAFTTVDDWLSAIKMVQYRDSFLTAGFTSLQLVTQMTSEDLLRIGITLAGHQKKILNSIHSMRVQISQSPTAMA
Assay: phosphorylation enrichment, bacterial display (enrichment ratio); higher = better substrate or ligand; peptides without Tyr show the background
# Lookup of reported phosphorylation enrichment keyed by entry
Returns: the value as a bare number; no unit string appended.

{"primary-sequence": "EVLKNYNQQKD [GOLGA4_Y1551]", "experimental-target": "EPHB1 (UniProt P54762)", "phosphorylation enrichment": 0.504}
{"primary-sequence": "PRAGVYPEKDQ [DNM2_Y626_L621P]", "experimental-target": "EPHB1 (UniProt P54762)", "phosphorylation enrichment": 0.734}

Asked: Please supply the value of reported phosphorylation enrichment for the item GFSDPYVKASL [SYT3_Y470]
Given back: 0.329

Asked: Please supply the value of reported phosphorylation enrichment for the item SIRFNYLLDVL [FGFR4_Y237_YF]
Given back: 0.539

Asked: Please supply the value of reported phosphorylation enrichment for the item LDLPGYCLLRE [CCDC116_Y291_P293L]
Given back: 1.88

Asked: Please supply the value of reported phosphorylation enrichment for the item GLAKEYTDPET [CSNK1G2_Y195_I196T]
Given back: 0.494

Asked: Please supply the value of reported phosphorylation enrichment for the item FAFQLYDLDRD [CHP2_Y123_YF]
Given back: 1.23

Asked: Please supply the value of reported phosphorylation enrichment for the item HRGHLYLAIEY [TEK_Y899_Y897H]
Given back: 1.08

Asked: Please supply the value of reported phosphorylation enrichment for the item IDGLEYLHSPG [STK11_Y166_Q170P]
Given back: 0.377

Asked: Please supply the value of reported phosphorylation enrichment for the item SERNNYSRVAN [CWC22_Y797]
Given back: 0.503

Asked: Please supply the value of reported phosphorylation enrichment for the item SARFRYLMAEK [LDHB_Y173]
Given back: 0.436

Asked: Please supply the value of reported phosphorylation enrichment for the item IFCIQYNIRAF [MYH4_Y820]
Given back: 0.821

Asked: Please supply the value of reported phosphorylation enrichment for the item RTEAQYRFIYM [PTPN11_Y511_Q506R]
Given back: 0.724

Asked: Please supply the value of reported phosphorylation enrichment for the item EIVYVYVKKRS [DNAI2_Y7]
Given back: 0.555
